testSystem: Par3 PDZ2 (Rattus norvegicus)
Sequence (chain, as listed by the source): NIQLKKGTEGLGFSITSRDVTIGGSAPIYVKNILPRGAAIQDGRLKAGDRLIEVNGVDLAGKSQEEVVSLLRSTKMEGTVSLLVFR
experiment: FP
Ends that are not written are not given here.
readoutName: pKd
Note on pKd: it is the negative log10 of concentration, concentration in mol/L.

Qu. Name the reported pKd value associated with the binder LEEDGTIITL (also: FITC label, position not given here) [FITC-labeled Par6β PBM peptide]
Ans. 3.79
